# Tested on: T-47D breast
# testSummary: NCI tumour cell line growth inhibition, 48 h
measuredMetric: TGI

Each compound below has a recorded value; state its TGI.
1. COC(=O)c1ccccc1C1CN=NC12Cc1ccccc1C2=O (stereo not given)
2. COc1ccc(N2C(=O)[C@H]3[C@H]4CC(C(C)(C)C)CC[C@H]4c4c(n(C)c5ccccc45)[C@H]3C2=O)cc1 (stereo not given in full)
3. CC12CCC(C(Nc3cc(C(F)(F)F)cc(C(F)(F)F)c3)C1=O)C2(C)C (stereo not given)
4. CCCCCCCCCCCCN1[C@H]2CCC[C@H]2C(O)[C@@H]2CCC[C@@H]21 (stereo not given in full)
5. CC1=NN(c2cccc(Cl)c2)C2(SCC(=O)N2c2nc3ccccc3s2)/C1=C\c1ccc(N(C)C)cc1 (stereo not given)
6. Cc1ccc(N2C(=O)C=C(C3=C(O)C(=O)N(c4ccc(C)cc4)C3=O)C2=O)cc1
7. C=C1C(=O)O[C@H]2[C@H]1CC/C(COC(=O)C(=O)c1cn(C)c3ccc(Cl)cc13)=C\CC[C@@]1(C)O[C@@H]21

1. > 100 µM
2. > 100 µM
3. > 100 µM
4. 88.2 µM
5. > 100 µM
6. > 100 µM
7. 3.27 µM

Need TGI for each of these compounds.
1. N#CC1C(=O)SC2c3ccccc3C(=O)c3ccccc3C12 (stereo not given)
2. CO[C@@H]1C[C@H]2[C@@H]3CC[C@H]([C@@H](C)CO)[C@@]3(C)CC[C@@H]2[C@@]2(C)CC[C@H]3C[C@]312
3. CC(O)c1cc2c(s1)C(=O)c1ccsc1C2=O (stereo not given)
4. Cc1c(CCN2CCOCC2)c(N2CCOCC2)n2c(nc3ccccc32)c1C#N
5. Nc1nc(N)c2cc(-c3ccccc3)cnc2n1
6. Cc1cc(-c2nc3sccn3c2/C=N/N=C(N)N)c(C)s1
7. Cc1cccc2c1C(=O)[C@](C)([C@]1(C)Nc3cccc(C)c3C1=O)N2

1. > 10 µM
2. > 100 µM
3. 1.42 µM
4. > 10 µM
5. > 100 µM
6. 32.8 µM
7. 87.9 µM

For each listed entry, give its TGI.
1. CCN(CC)c1ccc2cc(C(N)=S)c(=N)oc2c1
2. O=c1c2cc(-c3ccccc3)sc2nc2n1N=C(c1ccc(Cl)cc1)CS2
3. Cc1cc(C)nc(NS(=O)(=O)c2ccc(NNc3c4ccccc4nc4c(C(=O)Nc5ccc(S(N)(=O)=O)cc5)cccc34)cc2)n1
4. CCCCCCc1ccc(C(=O)NO)cc1
5. CCCC[C@H]1[C@@H](OCOc2ccccc2)COC(=O)N1[C@H](C)c1ccccc1
6. Nc1nc2c(c(=O)[nH]1)C(c1ccccc1)CC(=O)N2 (stereo not given)
7. CN=c1c2c(c3[nH]c4ccccc4c4cnc1c34)NCCC2=O

1: > 100 µM; 2: > 100 µM; 3: > 100 µM; 4: 82.9 µM; 5: > 40.4 µM; 6: > 100 µM; 7: > 10 µM
